test: xn = mol fraction of the nth substance listed; settings: 318.15 K; 100 kPa; Liquid; Vibrating tube method; x1 = 0.25
quantityName: mass density (kg/m3)
Quick reminder: number only, in kg/m3, skip the unit.

I'd like to know its mass density. The compound in question is C[N+](C)(C)Cc1ccccc1.[Cl-] [trimethylbenzylammonium chloride] + OCCOCCO
1098.09

I'd like to know its mass density. The compound in question is CCCC[N+](CCCC)(CCCC)Cc1ccccc1.[Cl-] [benzyltributylammonium chloride] + OCCOCCO
1042.22

I'd like to know its mass density. The compound in question is C[N+](C)(C)Cc1ccccc1.[Cl-] [trimethylbenzylammonium chloride] + OCCOCCOCCO
1103.87

I'd like to know its mass density. The compound in question is C[N+](C)(C)Cc1ccccc1.[Cl-] [trimethylbenzylammonium chloride] + OCC(O)CO
1170.19

I'd like to know its mass density. The compound in question is CCCC[N+](CCCC)(CCCC)Cc1ccccc1.[Cl-] [benzyltributylammonium chloride] + OCCO
1023.29

I'd like to know its mass density. The compound in question is CCCC[N+](CCCC)(CCCC)Cc1ccccc1.[Cl-] [benzyltributylammonium chloride] + OCC(O)CO
1090.07

I'd like to know its mass density. The compound in question is CCCC[N+](CCCC)(CCCC)Cc1ccccc1.[Cl-] [benzyltributylammonium chloride] + OCCOCCOCCO
1054.97

I'd like to know its mass density. The compound in question is C[N+](C)(C)Cc1ccccc1.[Cl-] [trimethylbenzylammonium chloride] + OCCO
1088.84
